Ref: patent US20240309103A1

Biological target: T1, human NPR1 extracellular domain expressed with a C-terminal mouse IgG2a (hNPR1-mFc) (human)
T1 construct: also called hNPR1-Fc; human NPR1 dimer
T1 chain: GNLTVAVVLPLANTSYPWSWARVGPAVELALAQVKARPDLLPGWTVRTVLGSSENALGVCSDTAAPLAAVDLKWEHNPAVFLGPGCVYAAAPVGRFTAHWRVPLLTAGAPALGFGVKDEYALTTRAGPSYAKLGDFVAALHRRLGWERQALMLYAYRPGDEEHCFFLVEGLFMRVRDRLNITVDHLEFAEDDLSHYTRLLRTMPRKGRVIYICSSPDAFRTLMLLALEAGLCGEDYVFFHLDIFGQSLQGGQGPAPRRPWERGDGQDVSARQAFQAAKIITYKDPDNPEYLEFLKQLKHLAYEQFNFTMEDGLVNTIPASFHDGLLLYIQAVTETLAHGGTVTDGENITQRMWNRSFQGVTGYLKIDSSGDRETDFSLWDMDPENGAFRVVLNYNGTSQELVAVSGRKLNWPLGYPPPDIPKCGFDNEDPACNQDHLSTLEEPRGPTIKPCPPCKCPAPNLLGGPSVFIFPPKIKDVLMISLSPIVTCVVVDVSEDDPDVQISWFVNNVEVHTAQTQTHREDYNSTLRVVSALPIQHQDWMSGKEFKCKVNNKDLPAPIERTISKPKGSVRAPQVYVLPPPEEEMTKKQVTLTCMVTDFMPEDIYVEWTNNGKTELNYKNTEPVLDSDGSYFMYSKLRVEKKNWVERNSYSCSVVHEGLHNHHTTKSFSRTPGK
Assay: SPR, mAb captured, 25 C
Below, each of the binders is paired with its reported t½ value.
Give the quantity in h, number only.

Example entries and their recorded answers appear below.
binder	result-number
mAb25497 (antibody, V domains shown) VH: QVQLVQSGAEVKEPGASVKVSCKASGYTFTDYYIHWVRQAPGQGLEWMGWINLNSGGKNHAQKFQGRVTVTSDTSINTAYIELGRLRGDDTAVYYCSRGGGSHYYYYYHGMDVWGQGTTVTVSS VL: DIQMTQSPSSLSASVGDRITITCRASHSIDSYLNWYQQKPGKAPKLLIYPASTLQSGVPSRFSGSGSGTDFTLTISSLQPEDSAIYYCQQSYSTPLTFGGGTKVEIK	3.99
mAb25508 (antibody, V domains shown) VH: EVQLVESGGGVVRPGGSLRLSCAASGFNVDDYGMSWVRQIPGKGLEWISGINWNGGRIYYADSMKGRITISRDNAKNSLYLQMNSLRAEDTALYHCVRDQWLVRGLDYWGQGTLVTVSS VL: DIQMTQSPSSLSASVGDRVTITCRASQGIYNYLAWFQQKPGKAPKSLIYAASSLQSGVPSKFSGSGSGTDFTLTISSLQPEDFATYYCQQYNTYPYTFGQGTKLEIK	2.81

Could you now consider this next binder?
[in] Data request, read-out t½, for mAb25491 (antibody, V domains shown) VH: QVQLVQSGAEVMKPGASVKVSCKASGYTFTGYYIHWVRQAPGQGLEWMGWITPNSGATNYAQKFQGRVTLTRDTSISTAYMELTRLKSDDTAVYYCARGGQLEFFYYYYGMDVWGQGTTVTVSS VL: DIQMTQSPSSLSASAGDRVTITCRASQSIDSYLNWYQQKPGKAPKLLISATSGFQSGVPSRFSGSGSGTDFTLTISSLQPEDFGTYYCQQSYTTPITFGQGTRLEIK
[out] 1.55
